The measured values listed here are drawn from paper PMC7527510.

target: dog MRGPRX2 (Canis lupus familiaris, UniProt A0A4Y5P885); experiment: Intracellular Ca2+ mobilisation assay in HEK293 cells transiently transfected with dog MRGPRX2; assay type: cell-based; conditions: HEK293 cells transfected with dog MRGPRX2; fluoroquinolones up to 1000 μg/mL
Sequence (A0A4Y5P885 entry or part of it): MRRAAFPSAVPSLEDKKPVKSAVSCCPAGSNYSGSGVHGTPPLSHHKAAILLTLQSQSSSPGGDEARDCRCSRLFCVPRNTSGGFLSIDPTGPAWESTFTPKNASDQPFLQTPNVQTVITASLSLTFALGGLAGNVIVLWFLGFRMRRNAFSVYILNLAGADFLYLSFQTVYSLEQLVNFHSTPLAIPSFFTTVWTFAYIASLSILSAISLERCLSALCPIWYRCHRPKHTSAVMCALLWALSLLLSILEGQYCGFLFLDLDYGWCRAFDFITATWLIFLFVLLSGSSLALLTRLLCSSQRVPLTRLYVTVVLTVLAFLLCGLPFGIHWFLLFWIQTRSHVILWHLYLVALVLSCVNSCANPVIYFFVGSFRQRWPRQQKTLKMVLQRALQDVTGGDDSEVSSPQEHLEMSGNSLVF
Reported Endpoint: Activation of dog MRGPRX2 (increase in intracellular Ca2+)

compound=O=C(O)c1cn(C2CC2)c2cc(N3CCNCC3)c(F)cc2c1=O target_of_assay="dog MRGPRX2 (Canis lupus familiaris, UniProt A0A4Y5P885)" result=responded
compound=C[C@H]1COc2c(N3CCN(C)CC3)c(F)cc3c(=O)c(C(=O)O)cn1c23 target_of_assay="dog MRGPRX2 (Canis lupus familiaris, UniProt A0A4Y5P885)" result=responded
compound="COc1c(N2CCNC(C)C2)c(F)cc2c(=O)c(C(=O)O)cn(C3CC3)c12 (stereo not shown)" target_of_assay="dog MRGPRX2 (Canis lupus familiaris, UniProt A0A4Y5P885)" result=responded

* * *

Molecular target: human MRGPRX2 (Homo sapiens, UniProt Q96LB1)
Construct: expressed in transfected cells; host or cells: HEK293 (JCRB Cell Bank), transient, pcDNA3.1(+) vector
Sequence (Q96LB1 whole entry): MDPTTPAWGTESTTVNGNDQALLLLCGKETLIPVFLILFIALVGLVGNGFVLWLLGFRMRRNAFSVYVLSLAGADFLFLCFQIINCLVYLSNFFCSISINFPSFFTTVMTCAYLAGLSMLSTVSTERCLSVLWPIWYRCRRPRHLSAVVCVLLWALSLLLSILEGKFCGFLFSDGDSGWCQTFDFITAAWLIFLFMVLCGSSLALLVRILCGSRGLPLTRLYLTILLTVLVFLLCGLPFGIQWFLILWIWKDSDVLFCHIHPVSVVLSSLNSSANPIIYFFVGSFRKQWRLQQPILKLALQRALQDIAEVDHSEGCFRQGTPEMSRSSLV
Assay: Intracellular Ca2+ mobilisation assay in HEK293 cells transiently transfected with human MRGPRX2
Assay type: cell-based
Details: HEK293 cells transfected with human MRGPRX2; fluoroquinolones up to 1000 μg/mL
Procedure: HEK293 cells obtained from the JCRB Cell Bank (Osaka, Japan) were transfected transiently with dog MRGPRD, MRGPRF, MRGPRG, or MRGPRX2 or human MRGPRX2. […] Test articles were dissolved in HBSS (pH 7.4, Thermo Fisher Scientific Inc., Waltham, MA, USA) supplemented with 20 mM HEPES (Sigma-Aldrich Co. LLC.) and 0.05 vol% bovine serum albumin (BSA, Sigma-Aldrich Co. LLC.). […] Samples were measured in duplicate or quadruplicate. […]
Reported Endpoint: Activation of human MRGPRX2 (increase in intracellular Ca2+)

compound=O=C(O)c1cn(C2CC2)c2cc(N3CCNCC3)c(F)cc2c1=O target_of_assay="human MRGPRX2 (Homo sapiens, UniProt Q96LB1)" result=concentration-dependent
compound=C[C@H]1COc2c(N3CCN(C)CC3)c(F)cc3c(=O)c(C(=O)O)cn1c23 target_of_assay="human MRGPRX2 (Homo sapiens, UniProt Q96LB1)" result=concentration-dependent
compound="COc1c(N2CCNC(C)C2)c(F)cc2c(=O)c(C(=O)O)cn(C3CC3)c12 (stereo not shown)" target_of_assay="human MRGPRX2 (Homo sapiens, UniProt Q96LB1)" result=concentration-dependent
